assayedTarget: D(3) dopamine receptor (Homo sapiens, UniProt P35462)
Sequence (P35462 whole entry): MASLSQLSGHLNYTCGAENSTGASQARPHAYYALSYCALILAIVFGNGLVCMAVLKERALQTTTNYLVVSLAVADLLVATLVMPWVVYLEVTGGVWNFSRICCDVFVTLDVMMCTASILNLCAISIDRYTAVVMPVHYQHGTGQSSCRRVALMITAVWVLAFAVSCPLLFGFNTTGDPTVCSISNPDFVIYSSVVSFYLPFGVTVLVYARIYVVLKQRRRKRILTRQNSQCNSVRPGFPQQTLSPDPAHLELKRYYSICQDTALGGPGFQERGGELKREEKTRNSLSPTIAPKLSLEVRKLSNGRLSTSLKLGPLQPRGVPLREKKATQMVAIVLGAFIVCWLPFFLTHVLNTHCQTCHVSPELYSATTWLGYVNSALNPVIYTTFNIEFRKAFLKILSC
Define the label as fulfilled when Ki is strictly less than 200 nM and as not fulfilled in all remaining cases.

| smilesString | assignedLabel |
| --- | --- |
| CC(C)N[C@@H]1CCc2c(F)cccc2C1 | not fulfilled |
| CCCN(CCC)[C@@H]1CCc2c(F)cccc2C1 | fulfilled |
| CCCN[C@@H]1CCc2c(F)cccc2C1 | fulfilled |
| CCCN(CCCCN1C(=O)CC2(CCCC2)CC1=O)[C@@H]1CCc2c(F)cccc2C1 | fulfilled |
| CCCCN(CCC)[C@@H]1CCc2c(F)cccc2C1 | fulfilled |

Please let me know if Fc1cccc2c1CC[C@@H](NCc1ccccc1)C2 shows Ki below 200 nM. not fulfilled

Lab log: compare recorded Ki with 200 nM; is it strictly lower for N[C@@H]1CCc2c(F)cccc2C1 ? fulfilled

In plain terms, does CCCCN[C@@H]1CCc2c(F)cccc2C1 come in under 200 nM for Ki? fulfilled

----------
assayedTarget: D(2) dopamine receptor (Homo sapiens)
pKi: −log10 of the molar value.
// label = fulfilled if pKi is not less than 6, otherwise not fulfilled

Some entries whose results are on file:
| smilesString | assignedLabel |
| --- | --- |
| CCCN(C(C)C)[C@@H]1CCc2c(F)cccc2C1 | not fulfilled |
| CCCN[C@@H]1CCc2c(F)cccc2C1 | fulfilled |
| CCCCN(CCC)[C@@H]1CCc2c(F)cccc2C1 | fulfilled |
| CCCN(CCC)[C@@H]1CCc2c(F)cccc2C1 | fulfilled |
| Fc1cccc2c1CC[C@@H](NCc1ccccc1)C2 | not fulfilled |
| CCCN(Cc1ccccc1)[C@@H]1CCc2c(F)cccc2C1 | fulfilled |

Switching to the query record.
Confirm if pKi reported for the compound CC(C)N[C@@H]1CCc2c(F)cccc2C1 is 6 or above. not fulfilled

----------
Catalogue of compounds with associated nH
assayedTarget: D(2) dopamine receptor (Homo sapiens, UniProt P14416)
Sequence (P14416 whole entry): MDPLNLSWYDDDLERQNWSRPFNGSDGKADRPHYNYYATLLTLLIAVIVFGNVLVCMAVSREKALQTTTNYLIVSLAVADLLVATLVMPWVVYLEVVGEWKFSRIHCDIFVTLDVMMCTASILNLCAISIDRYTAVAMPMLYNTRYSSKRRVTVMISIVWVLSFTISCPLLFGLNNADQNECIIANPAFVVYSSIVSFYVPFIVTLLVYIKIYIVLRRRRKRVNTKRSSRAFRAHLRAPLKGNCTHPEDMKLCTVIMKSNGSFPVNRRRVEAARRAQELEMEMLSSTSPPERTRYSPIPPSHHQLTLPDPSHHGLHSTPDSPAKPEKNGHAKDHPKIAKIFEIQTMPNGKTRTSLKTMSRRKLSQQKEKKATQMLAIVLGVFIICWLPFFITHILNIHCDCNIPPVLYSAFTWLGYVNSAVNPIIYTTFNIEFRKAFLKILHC
assayNotes: Hill coefficients for [3H]-raclopride binding to dopamine D2 receptor high-and low-affinity agonist states
Form: value (number only, do not type unit).

Example cases with answers are listed next.
| smilesString | testResult |
| --- | --- |
| CC(C)N[C@@H]1CCc2c(F)cccc2C1 | 0.88 |
| CCCN(CCCCN1C(=O)CC2(CCCC2)CC1=O)[C@@H]1CCc2c(F)cccc2C1 | 0.87 |

Return reported nH. Input compound: CCCN(Cc1ccccc1)[C@@H]1CCc2c(F)cccc2C1 0.86

State its nH: CCCCN(CCC)[C@@H]1CCc2c(F)cccc2C1 0.91

Provide measured nH value, entry: CCCN[C@@H]1CCc2c(F)cccc2C1 0.86

Return nH for the following compound: CCCN(CCC)[C@@H]1CCc2c(F)cccc2C1 0.89

Return value of nH for input Fc1cccc2c1CC[C@@H](NCc1ccccc1)C2 , no commentary. 0.81

Query nH for CCCN(C(C)C)[C@@H]1CCc2c(F)cccc2C1 0.94

----------
Form field: pKi (one value per entry).
assayedTarget: D(2) dopamine receptor (Homo sapiens)
assayNotes: Inhibition of [3H]raclopride binding to Dopamine receptor D2
The quantity pKi is defined as the negative base-10 logarithm of the molar concentration.

| smilesString | assayedTarget | pKi |
| --- | --- | --- |
| O=C1CC2(CCCC2)CC(=O)N1CCCCN[C@@H]1CCc2c(F)cccc2C1 | D(2) dopamine receptor (Homo sapiens) | 7.17 |

Proceeding to the next molecule to report its pKi.
Give pKi for the following molecule: CCCN(CCCCN1C(=O)CC2(CCCC2)CC1=O)[C@@H]1CCc2c(F)cccc2C1 7.77
